Molecular target: T1, cynomolgus monkey CD8 alpha on primary cynomolgus CD8+ T cells (cynomolgus monkey, UniProt P01732 23-235 (human entry))
T1 construct: also called Cyno CD8alpha; cyno CD8A
T1 sequence (P01732 other isoform, or with tags, fused parts or gaps limits assumed): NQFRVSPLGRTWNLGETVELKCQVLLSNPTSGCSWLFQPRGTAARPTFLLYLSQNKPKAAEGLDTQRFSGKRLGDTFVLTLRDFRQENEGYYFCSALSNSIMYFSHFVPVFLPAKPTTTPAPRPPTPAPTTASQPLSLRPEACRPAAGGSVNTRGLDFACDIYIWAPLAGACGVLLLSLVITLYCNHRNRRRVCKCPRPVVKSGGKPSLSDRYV
Assay: flow cytometry, cyno CD8+ T cells
property-measured: Cyno T-cell Binding 0.2 uM (MFI)
Numeric answer only, unit MFI assumed.

binder | Cyno T-cell Binding 0.2 uM (MFI)
P283FR9P1366_H9 (designed binder, FN3 domain) LPAPKNLVVSRVTEDSARLSWTAPDAAFDSFEIAYPEWPVNGEAIVLTVPGSERSYDLTGLKPGTEYWVVIWGVKGGVNSYPLSAIFTT | 2880
P283HR7P1368_G11 (designed binder, FN3 domain) LPAPKNLVVSRVTEDSARLSWTAPDAAFDSFGIGYAEPAVTGEAISLSVPGSERSYDLTGLKPGTEYWVVIIGVKGGINSYPLGASFTT | 1340
P283FR9P1366_C6 (designed binder, FN3 domain) LPAPKNLVVSRVTEDSARLSWTAPDAAFDSFSIAYPEWPVYGEAIVLTVPGSERSYDLTGLKPGTEYFVVIYGVKGGNYSDPLSAIFTT | 1680

### Prompt For the binder P283DR9P1364_E7 (designed binder, FN3 domain) LPAPKNLVVSRVTEDSARLSWTAPDAAFDSFNIAYPEWPVRGEAIVLTVPGSERSYDLTGLKPGTEYWVIIYGVKGGDRSNPLSAIFTT , give its reported Cyno T-cell Binding 0.2 uM (MFI).
### Response 2240

### Prompt For the binder P283FR9P1366_D6 (designed binder, FN3 domain) LPAPKNLVVSRVTEDSARLSWTAPDAAFDSFNIFYPELVFPGEAIVLTVPGSERSYDLTGLKPGTEYWVNISGVKGGEHSWPLSAIFTT , give its reported Cyno T-cell Binding 0.2 uM (MFI).
### Response 10400

Reference for the values: patent US20210032312A1
